testedSystem: MAGI3_2, Q5TCQ9
Sequence (Q5TCQ9 398-503): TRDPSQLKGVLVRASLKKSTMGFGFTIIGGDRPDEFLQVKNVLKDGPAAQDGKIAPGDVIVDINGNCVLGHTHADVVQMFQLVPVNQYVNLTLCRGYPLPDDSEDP
protocolDetails: holdup assay
Design: key: below the threshold = too weak to quantify, mostly under pKd 3.1 to 4
conditionLabel: plain residues with an end cap or a label only (N-terminal biotin on a linker: ado-ado)

{"binder": "TSQESEDTYL [TBC1D10A, Q9BXI6]", "pKd": "below the threshold"}
{"binder": "ETQVTAETVI [TMEM225B, P0DP42]", "pKd": 3.79}
{"binder": "PEYLGLDVPV [ERBB2, P04626]", "pKd": "below the threshold"}
{"binder": "QPCFNKLFPL [LPXN, O60711]", "pKd": "below the threshold"}
{"binder": "DDEDRLVIEI [ZNF831, Q5JPB2]", "pKd": "below the threshold"}
{"binder": "SKENVQETQI [LRRC4B, Q9NT99]", "pKd": 4.37}

Just for reference, paper PMC9482650 is where these values come from.
